// values below are reported pKd
system_name: T1, Human soluble IL-6R (human, UniProt P08887 20-358)
T1 construct: Soluble recombinant form; biotinylated in some assays; also called hIL-6R; human IL-6R
T1 sequence (looked up): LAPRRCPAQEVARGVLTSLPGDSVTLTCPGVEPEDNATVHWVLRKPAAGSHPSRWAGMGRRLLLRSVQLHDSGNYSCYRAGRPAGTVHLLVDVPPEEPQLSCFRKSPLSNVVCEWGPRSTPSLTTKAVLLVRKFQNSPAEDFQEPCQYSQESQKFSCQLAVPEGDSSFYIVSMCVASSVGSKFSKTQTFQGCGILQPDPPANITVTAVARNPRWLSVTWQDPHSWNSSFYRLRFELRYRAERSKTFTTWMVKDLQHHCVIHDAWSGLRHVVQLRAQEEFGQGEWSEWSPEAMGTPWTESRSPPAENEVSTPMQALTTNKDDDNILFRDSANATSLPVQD
assay: Biacore, binding to IL-6R
pKd: −log10 of the molar value.

>  <binder>
IL6R82 (VHH) VHH: EVQLVESGGGLVQPGGSLRLSCAASGFTFDDYGMSWVRQAPGKGLEWVSAISWNGNNTYYTESMKGRFTISRDNAKNTVYLQMNSLRPEDTAVYYCVKGSTAIVGVPPTYPDEYDYWGQGTLVTVSS

>  <pKd>
8.29

$$$$
>  <binder>
IL6R81 (VHH) VHH: EVQLVESGGGLVQPGGSLRLSCAASGFTFDDYGMSWVRQAPGRATEWVSAISWNGNNTYYTESMKGRFTISRDNAKNTVYLQMNSLRPEDTAVYYCVKGSTAIVGVPPTYPDEYDYWGQGTLVTVSS

>  <pKd>
9.40

$$$$
>  <binder>
IL6R61 (VHH) VHH: EVQLVESGGGLVQPGGSLRLSCAASGSIFKVNAMGWYRQAPGKGRELVAGIISGGSTNYADSVKGRLTISRDNAKNTVYLQMNSLRPEDTAVYYCSFVTTNSDYDLGRDYWGQGTLVTVSS

>  <pKd>
8.70

$$$$
>  <binder>
IL6R73 (VHH) VHH: EVQLVESGGGLVQPGGSLRLSCAASGFTFDDYDIGWFRQAPGKGREGVSGISSSDGNTYYADSVKGRFTISRDNAKNTVYLQMNSLRPEDTAVYYCAAEPPDSSWYLDGSPEFFKYWGQGTLVTVSS

>  <pKd>
9.52

$$$$
